B1: HDV Ribozyme (parent)
chain: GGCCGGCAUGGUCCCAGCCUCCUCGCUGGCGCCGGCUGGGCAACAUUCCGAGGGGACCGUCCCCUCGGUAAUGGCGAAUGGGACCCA

Variants of: B1
Protocol notes: self-cleavage, relative activity (ratio to wild type); higher = more cleavage; co-transcriptional
Use Y when the recorded self-cleavage is no lower than 0.1; use N when it is lower.

Completed entries (count: 10):
Mutant id	Category
C22U G52U	Y
U23C A70U	Y
G1C C22U	Y
G35U A70U	Y
G29U A87C	N
U27C U69A	Y
G2A C57U	Y
C33G A77G	Y
U20G U65G	Y
A42C C75U	Y

Query: Confirm if self-cleavage reported for the variant C4A G28C is 0.1 or above.
Result: N

Query: Kindly determine if self-cleavage recorded for C4A C19G is above or exactly 0.1.
Result: N

Query: Check this variant for self-cleavage at or above 0.1: G11C C30A
Result: N

Query: Is self-cleavage for U12C A42U at or above 0.1?
Result: N

Query: Decide: is the reported value of self-cleavage for C48A A51C equal to or greater than 0.1?
Result: Y

Query: Identify whether the reported self-cleavage of the following variant is 0.1 or greater: U37G C49G
Result: Y

Query: // inclusive: self-cleavage at least 0.1? input: G55A C57U
Result: Y

Query: Is reported self-cleavage greater than or equal to 0.1 here: C63U G81U
Result: Y

Query: Quick check: does C19U G73C have self-cleavage greater than or equal to 0.1?
Result: N

Query: Reported self-cleavage reaches at least 0.1 for A16C C57U ?
Result: Y

Source: the RNAGym collection of RNA variant scans (doi:10.7554/elife.80360)
